# measured.target: 5-HT2A (Homo sapiens)
# Construct: expressed in transfected cells; host or cells: HEK293T (ATCC; RRID:CVCL_0063), transient transfection
# Sequence (P28223 whole entry): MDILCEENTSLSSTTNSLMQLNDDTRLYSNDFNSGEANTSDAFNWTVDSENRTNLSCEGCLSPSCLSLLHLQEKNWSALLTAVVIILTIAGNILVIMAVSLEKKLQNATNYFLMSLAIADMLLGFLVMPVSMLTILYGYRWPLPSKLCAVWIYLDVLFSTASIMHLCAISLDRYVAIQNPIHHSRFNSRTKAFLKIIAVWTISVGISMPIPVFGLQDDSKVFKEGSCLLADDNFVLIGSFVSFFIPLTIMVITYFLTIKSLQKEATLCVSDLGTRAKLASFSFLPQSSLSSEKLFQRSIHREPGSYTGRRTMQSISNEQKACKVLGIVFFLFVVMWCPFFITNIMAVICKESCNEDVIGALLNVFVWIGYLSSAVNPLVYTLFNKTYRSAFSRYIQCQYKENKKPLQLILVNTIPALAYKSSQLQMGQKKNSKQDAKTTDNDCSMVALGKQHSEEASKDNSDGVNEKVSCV
# assay.details: Gq dissociation BRET assay in HEK293T cells
# Format: cell-based
# settings: Gq dissociation BRET, relative to 5-HT
Below: a set of entries, each annotated with reported Emax ± SEM, %5-HT response 5-HT2A.
The reply should be a number in %, with the unit left off.

- compound: "CC(N)Cc1ccc2c(c1)SCO2 (stereo not shown)"
  measure.name: "Emax ± SEM, %5-HT response 5-HT2A"
  reported.result: 92.4
- compound: "CC(N)Cc1ccc2c(c1)OCO2 (stereo not shown) [MDA, 3,4-Methylenedioxyamphetamine, reference compound]"
  measure.name: "Emax ± SEM, %5-HT response 5-HT2A"
  reported.result: 87.8
- compound: "CNC(C)Cc1ccc2c(c1)OCO2 (stereo not shown) [MDMA, 3,4-Methylenedioxymethamphetamine, reference compound]"
  measure.name: "Emax ± SEM, %5-HT response 5-HT2A"
  reported.result: 66.0

Now let's try a different one.
q: // map CNC(C)Cc1ccc2c(c1)SCO2 (stereo not shown) to recorded Emax ± SEM, %5-HT response 5-HT2A (system: 5-HT2A (Homo sapiens))
a: 68.2

Sourced from paper PMC12715756
